- System: Mycoplasma gallisepticum T-7-T (wild strain, tylosin-resistant)
- ASSAY_SUMMARY: Mycoplasma gallisepticum air-sac infection method in chicken, strain T-7-T;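 as to Index of Isolation: index = (P×1 + Q×2 + R×3)/S with range 0 to 6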
- Assay type: in vivo, Mycoplasma gallisepticum; SPF chicken (white leghorn)
- CONDITIONS: 100 mg/kg × once oral, 10 mg/ml sol. b, inoculum 10^2, range 0-6.0
Counter-ions that a name gives are not always drawn.
REPORTED_ENDPOINT: Index of Isolation

INSERT INTO measurements (compound, reported_endpoint, recorded_result) VALUES
  ('O=C1OC(Oc2cccccc2=O)c2ccccc21 (stereo not shown)', 'Index of Isolation', 4.20),
  ('CC(C)(C)C(=O)OCOc1cccccc1=O', 'Index of Isolation', 2.00),
  ('O=c1c(O)ccccc1Br', 'Index of Isolation', 2.80),
  ('O=c1cccccc1O [Compound 11, Tropolone L-lysine salt]', 'Index of Isolation', 2.90),
  ('CC(=O)Oc1cccccc1=O', 'Index of Isolation', 0.90),
  ('CC[C@H]1OC(=O)C[C@@H](O)[C@H](C)[C@@H](O[C@@H]2O[C@H](C)[C@@H](O[C@H]3C[C@@](C)(O)[C@@H](O)[C@H](C)O3)[C@H](N(C)C)[C@H]2O)[C@@H](CC=O)C[C@@H](C)C(=O)/C=C/C(C)=C/[C@@H]1CO[C@@H]1O[C@H](C)[C@@H](O)[C@@H](OC)[C@H]1OC [tylosin, reference compound]', 'Index of Isolation', 5.60),
  ('O=c1cccccc1O [Tropolone, tropolone]', 'Index of Isolation', 0.40);

###

Documented MIC across a set of molecules
- System: Mycoplasma gallisepticum MR-1 (wild strain, tylosin-resistant)
- ASSAY_SUMMARY: Anti-mycoplasma activity in vitro (MIC, broth dilution), strain MR-1
- Format: cell-based
- CONDITIONS: Mg MR-1, 37° C., 7 days
Where a name gives a salt, the structure may show the parent alone.
REPORTED_ENDPOINT: MIC

INSERT INTO results (molecule, reported_endpoint, recorded_result) VALUES
  ('O=c1cccccc1O [Compound 11, Tropolone L-lysine salt]', 'MIC', '0.78 µg/mL'),
  ('O=c1cccccc1O [Tropolone, tropolone]', 'MIC', '0.39 µg/mL'),
  ('O=c1cccccc1O [Compound 12, Tropolone L-arginine salt]', 'MIC', '3.13 µg/mL'),
  ('O=c1cccccc1O [Compound 10, Tropolone n-propylamine salt]', 'MIC', '3.13 µg/mL'),
  ('O=c1cccccc1O [Compound 9, Tropolone ethanolamine salt]', 'MIC', '3.13 µg/mL'),
  ('O=c1cccccc1[O-].O=c1cccccc1[O-].[Ni+2]', 'MIC', '3.13 µg/mL'),
  ('O=c1cccccc1O.O=c1cccccc1O.[Cu]', 'MIC', '3.13 µg/mL'),
  ('O=c1cccccc1O [Compound 6, Tropolone magnesium salt]', 'MIC', '1.56 µg/mL');

###

- Tested on: Mycoplasma gallisepticum S6 (standard strain)
- ASSAY_SUMMARY: Anti-mycoplasma activity in vitro (MIC, broth dilution), strain S6
- Type: cell-based
- CONDITIONS: Mycoplasmoides gallisepticum, 168 h, Mg S6, 37° C., 7 days; read-out: MIC
REPORTED_ENDPOINT: MIC (µg/mL)

INSERT INTO measurements (compound, endpoint_unit, result_qualifier, recorded_result) VALUES
  ('O=c1c(O)ccccc1Br', 'µg/mL', '=', 0.39),
  ('C=CCOc1cccccc1=O', 'µg/mL', '>', 25),
  ('COc1ccccc(O)c1=O', 'µg/mL', '=', 6.25),
  ('CC(=O)Oc1cccccc1=O', 'µg/mL', '=', 0.39),
  ('Cc1oc(=O)oc1COc1cccccc1=O', 'µg/mL', '=', 0.39),
  ('CC(C)(C)OC(=O)COc1cccccc1=O', 'µg/mL', '>', 25),
  ('CC(Oc1cccccc1=O)C(=O)O (stereo not shown)', 'µg/mL', '>', 25),
  ('O=c1c(O)ccccc1O [Compound 27, 7-Hydroxytropolone]', 'µg/mL', '=', 12.5),
  ('Cc1ccc(S(=O)(=O)Oc2cccccc2=O)cc1', 'µg/mL', '=', 3.13),
  ('O=C(Oc1cccccc1=O)c1ccccc1', 'µg/mL', '=', 6.25),
  ('O=C(COc1cccccc1=O)c1ccccc1', 'µg/mL', '=', 0.78),
  ('Cc1ccccc(O)c1=O', 'µg/mL', '=', 0.1),
  ('N#CSc1cccccc1=O', 'µg/mL', '=', 6.25),
  ('CC(C)(C)C(=O)OCOc1cccccc1=O', 'µg/mL', '=', 0.39),
  ('CCOC(=O)C(C)Oc1cccccc1=O (stereo not shown)', 'µg/mL', '>', 25),
  ('O=C1OC(Oc2cccccc2=O)c2ccccc21 (stereo not shown)', 'µg/mL', '=', 0.39);

###

- System: Mycoplasma gallisepticum T-7-T (wild strain, tylosin-resistant)
- ASSAY_SUMMARY: Mycoplasma gallisepticum air-sac infection method in chicken, strain T-7-T
- Format: in vivo, Mycoplasma gallisepticum; SPF chicken (white leghorn)
- CONDITIONS: 100 mg/kg × once oral, 10 mg/ml sol. b, inoculum 10^2
Where a name gives a salt, the structure may show the parent alone.
REPORTED_ENDPOINT: Isolation, T (trachea)

INSERT INTO measurements (compound, measured_on, recorded_result) VALUES
  ('CC[C@H]1OC(=O)C[C@@H](O)[C@H](C)[C@@H](O[C@@H]2O[C@H](C)[C@@H](O[C@H]3C[C@@](C)(O)[C@@H](O)[C@H](C)O3)[C@H](N(C)C)[C@H]2O)[C@@H](CC=O)C[C@@H](C)C(=O)/C=C/C(C)=C/[C@@H]1CO[C@@H]1O[C@H](C)[C@@H](O)[C@@H](OC)[C@H]1OC [tylosin, reference compound]', 'Mycoplasma gallisepticum T-7-T (wild strain, tylosin-resistant)', 8),
  ('O=c1cccccc1O [Compound 11, Tropolone L-lysine salt]', 'Mycoplasma gallisepticum T-7-T (wild strain, tylosin-resistant)', 5),
  ('O=c1cccccc1O [Tropolone, tropolone]', 'Mycoplasma gallisepticum T-7-T (wild strain, tylosin-resistant)', 1),
  ('O=C1OC(Oc2cccccc2=O)c2ccccc21 (stereo not shown)', 'Mycoplasma gallisepticum T-7-T (wild strain, tylosin-resistant)', 6),
  ('CC(=O)Oc1cccccc1=O', 'Mycoplasma gallisepticum T-7-T (wild strain, tylosin-resistant)', 2),
  ('CC(C)(C)C(=O)OCOc1cccccc1=O', 'Mycoplasma gallisepticum T-7-T (wild strain, tylosin-resistant)', 5),
  ('O=c1c(O)ccccc1Br', 'Mycoplasma gallisepticum T-7-T (wild strain, tylosin-resistant)', 5);

###

- Test system: Mycoplasma gallisepticum T-7-T (wild strain, tylosin-resistant)
- ASSAY_SUMMARY: Mycoplasma gallisepticum air-sac infection method in chicken, strain T-7-T
- Assay type: in vivo, Mycoplasma gallisepticum; SPF chicken (white leghorn)
- CONDITIONS: 100 mg/kg × once oral, 10 mg/ml sol. b, inoculum 10^2
Where a name gives a salt, the structure may show the parent alone.
REPORTED_ENDPOINT: Change of air-sac, right: +++ (chickens)

INSERT INTO measurements (molecule, recorded_result) VALUES
  ('CC[C@H]1OC(=O)C[C@@H](O)[C@H](C)[C@@H](O[C@@H]2O[C@H](C)[C@@H](O[C@H]3C[C@@](C)(O)[C@@H](O)[C@H](C)O3)[C@H](N(C)C)[C@H]2O)[C@@H](CC=O)C[C@@H](C)C(=O)/C=C/C(C)=C/[C@@H]1CO[C@@H]1O[C@H](C)[C@@H](O)[C@@H](OC)[C@H]1OC [tylosin, reference compound]', 1),
  ('CC(C)(C)C(=O)OCOc1cccccc1=O', 0),
  ('O=c1c(O)ccccc1Br', 0),
  ('O=c1cccccc1O [Compound 11, Tropolone L-lysine salt]', 0),
  ('CC(=O)Oc1cccccc1=O', 0),
  ('O=c1cccccc1O [Tropolone, tropolone]', 0),
  ('O=C1OC(Oc2cccccc2=O)c2ccccc21 (stereo not shown)', 0);

###

- System: Mycoplasma gallisepticum S6 (standard strain)
- ASSAY_SUMMARY: Mycoplasma gallisepticum air-sac infection method in chicken, strain S6
- Assay type: in vivo, Mycoplasma gallisepticum; SPF chicken (white leghorn)
- CONDITIONS: 100 mg/kg × once oral, 10 mg/ml sol. b, inoculum 1.2 × 10^6, range 0-6.0
Counter-ions that a name gives are not always drawn.
Documented Index of Isolation across a set of compounds
REPORTED_ENDPOINT: Index of Isolation

INSERT INTO results (compound, recorded_result) VALUES
  ('O=c1c(O)ccccc1Br', 2.70),
  ('CC(=O)Oc1cccccc1=O', 1.75),
  ('CC(C)(C)C(=O)OCOc1cccccc1=O', 1.01),
  ('O=c1cccccc1O [Compound 11, Tropolone L-lysine salt]', 0.54),
  ('O=c1cccccc1O [Tropolone, tropolone]', 0),
  ('O=C1OC(Oc2cccccc2=O)c2ccccc21 (stereo not drawn)', 1.90);
